Provide the recorded pKd for the entries that follow.
target: T1, human transferrin receptor (hTfR) (human, UniProt P02786 89-760); assay: SPR, Biacore T200, hTfR captured by anti-His antibody on CM3 chip, pH 7.4
T1 construct: also called human TfR; TfR1
T1 sequence (P02786 89-760 limits assumed): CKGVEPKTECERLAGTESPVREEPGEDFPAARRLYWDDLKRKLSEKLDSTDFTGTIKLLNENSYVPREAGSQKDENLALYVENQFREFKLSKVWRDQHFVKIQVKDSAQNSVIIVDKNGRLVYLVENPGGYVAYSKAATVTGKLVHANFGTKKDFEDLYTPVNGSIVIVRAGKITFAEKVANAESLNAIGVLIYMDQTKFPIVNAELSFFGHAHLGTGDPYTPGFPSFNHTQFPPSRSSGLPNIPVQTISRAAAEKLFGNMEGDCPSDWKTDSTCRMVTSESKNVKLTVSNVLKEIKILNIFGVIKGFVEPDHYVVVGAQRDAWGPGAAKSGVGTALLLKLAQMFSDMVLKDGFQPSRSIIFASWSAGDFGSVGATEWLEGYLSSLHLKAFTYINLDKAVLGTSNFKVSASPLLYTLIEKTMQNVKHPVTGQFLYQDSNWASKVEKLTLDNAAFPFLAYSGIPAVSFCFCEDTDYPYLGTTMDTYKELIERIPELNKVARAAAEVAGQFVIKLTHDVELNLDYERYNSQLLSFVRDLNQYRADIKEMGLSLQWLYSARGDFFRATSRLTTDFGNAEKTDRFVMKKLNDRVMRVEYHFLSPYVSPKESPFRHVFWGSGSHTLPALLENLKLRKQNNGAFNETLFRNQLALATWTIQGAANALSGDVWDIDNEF
Numbered stars: 1 amine (or outer) side, 2 acyl side, 3 side chain; on linkers, the order of the positions; unused ones are H or OH. Bridge positions count the residues as written; N and C are the ends. Square brackets hold non-standard residues; d marks the D form. F4aao = 4-(carboxymethoxy)-L-phenylalanine, O=C([C@H](Cc1ccc(OCC(=O)[*:3])cc1)N[*:1])[*:2]; PEG4c = amino-tetraoxa (PEG4) carboxylic acid spacer; Phe(3-COOH) = N[C@@H](Cc1cccc(C(=O)O)c1)C(=O)O; NMePhe(3-Cl) = CN[C@@H](Cc1cccc(Cl)c1)C(=O)O; NMeY = CN[C@@H](Cc1ccc(O)cc1)C(=O)O
Remember the convention: pKd equals -log10 of concentration in molar.

// query Output measured pKd for this item: AVXVWNYXIIQRXXC (MeF3C at 3; F4OMe at 8; Eva at 9; F3COO at 13; MeF4COO at 14; cyclic: chloroacetylated N-terminal Ala 1 joined to Cys 15; linker PEG4c on C-terminus, As printed: A-V-MeF3C-V-W-N-Y-F4OMe-Eva-I-Q-R-F3COO-MeF4COO-C, linker PEG4c) [894_0530 (SEQ ID No. 80)]
// result 9.28

// query Output measured pKd for this item: {CH2CO}-AV[NMePhe(3-Cl)]VWNY[F4aao]IIQR[Phe(3-COOH)][NMeY]C-PEG4c (thioether N-15, As printed: A-V-MeF3C-V-W-N-Y-F4aao-I-I-Q-R-F3COO-MeY-C, linker PEG4c) [894_0518 (SEQ ID No. 72)]
// result 8.48

// query Output measured pKd for this item: AVXVWNYXIIQRXXC (MeF3C at 3; F4OMe at 8; Eva at 9; F3COO at 13; MeF3COO at 14; cyclic: chloroacetylated N-terminal Ala 1 joined to Cys 15; linker PEG4c on C-terminus, As printed: A-V-MeF3C-V-W-N-Y-F4OMe-Eva-I-Q-R-F3COO-MeF3COO-C, linker PEG4c) [894_0531 (SEQ ID No. 81)]
// result 8.73

The reported numbers originate from patent EP4667483A1.
